- assayed.target: Mitogen-activated protein kinase 1 (Homo sapiens, UniProt P28482)
- Sequence (P28482 whole entry): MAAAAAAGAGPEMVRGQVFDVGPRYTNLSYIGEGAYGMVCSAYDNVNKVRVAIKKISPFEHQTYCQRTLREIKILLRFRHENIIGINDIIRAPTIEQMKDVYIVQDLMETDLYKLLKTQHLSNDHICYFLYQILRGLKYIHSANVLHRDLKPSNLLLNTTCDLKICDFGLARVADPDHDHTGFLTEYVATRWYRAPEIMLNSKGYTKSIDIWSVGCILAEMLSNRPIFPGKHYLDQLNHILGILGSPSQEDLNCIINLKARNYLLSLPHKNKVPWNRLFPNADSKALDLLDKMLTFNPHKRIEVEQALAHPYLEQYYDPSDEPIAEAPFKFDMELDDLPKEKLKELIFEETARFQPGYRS
- test.description: Inhibition of ERK2 (unknown origin) using 5FAM-IPTSPITTTYFFFKKK as substrate after 1 hr by LC3K assay
pIC50: −log10 of the molar value.
assay.metric: pIC50

[a] CC(C)Cn1cc(-c2c[nH]c3ncc(-c4ccncc4)nc23)cn1
[b] Fc1cc(-c2cnc3[nH]ccc3n2)ccn1
Q: Please compare: a and b . Report which one has the smaller pIC50 value. # answer = label of selected item
Result: b
(b: 4.67, a: 7.04)

====

- assayed.target: Mitogen-activated protein kinase 1 (Homo sapiens, UniProt P28482)
- test.description: Binding affinity to ERK2 (unknown origin) by surface plasmon resonance assay
pKd: −log10 of the molar value.
assay.metric: pKd

# example entries with known answers
>>> observed_value("c1ccc(CNc2ncnc3nc[nH]c23)cc1")
3.61
>>> observed_value("c1cnc2[nH]ccc2n1")
3.46
>>> observed_value("Brc1c[nH]c2nccnc12")
4.01

[1] Brc1cnc2[nH]cc(I)c2n1
[2] Brc1cnc2[nH]ccc2n1
Q: Hi, I'm comparing two records. Which one has the lower pKd, 1 or 2 ? Could you answer with the label of the item you picked?
Result: 2
(2: 3.50, 1: 3.90)

====

- assayed.target: Mitogen-activated protein kinase 1 (Homo sapiens)
- test.description: Inhibition of ERK2 (unknown origin) using 5FAM-IPTSPITTTYFFFKKK as substrate after 1 hr by LC3K assay
pIC50: −log10 of the molar value.
assay.metric: pIC50

[I] CCCn1cc(-c2c[nH]c3ncc(-c4ccncc4)nc23)cn1
[II] CCn1cc(-c2c[nH]c3ncc(-c4ccncc4)nc23)cn1
Q: Among I and II , whose measured pIC50 is the smaller figure? Write down the label of the entry you select.
Result: II
(II: 6.83, I: 7.15)

[I] c1ccc(CCn2cc(-c3c[nH]c4ncc(-c5ccncc5)nc34)cn2)cc1
[II] Clc1ccc(-c2c[nH]c3ncc(-c4ccncc4)nc23)cn1
Q: Please tell me which of the two, I or II , has the higher reported pIC50 value. Choose, then provide that item's label.
Result: II
(II: 6.74, I: 5.70)

[a] Cc1ccc(-c2c[nH]c3ncc(-c4ccncc4)nc23)cn1
[b] c1cncc(-c2c[nH]c3ncc(-c4cn[nH]c4)nc23)c1
[c] c1cc2nc(-c3cn[nH]c3)cnc2[nH]1
[d] c1ccc(Cn2cc(-c3c[nH]c4ncc(-c5ccncc5)nc34)cn2)cc1
[e] c1cc(-c2cnc3[nH]cc(-c4cncnc4)c3n2)ccn1
Q: Arrange the 5 compounds by rising pIC50, starting with the smallest. Lab note: record answer as labels in requested order.
Result: c, e, a, b, d
(c: 5.23, e: 5.66, a: 6.20, b: 6.55, d: 7.43)

[P] c1cc(-c2cnc3[nH]cc(-c4cn[nH]c4)c3n2)ccn1
[Q] c1cc2nc(-c3ccc4cn[nH]c4c3)cnc2[nH]1
Q: Lower pIC50: P or Q ? Mark your answer with the label of the selected entry.
Result: Q

====

- assayed.target: Mitogen-activated protein kinase 1 (Homo sapiens, UniProt P28482)
- test.description: Inhibition of ERK2 (unknown origin) using 5FAM-IPTSPITTTYFFFKKK as substrate after 1 hr by LC3K assay
pIC50: −log10 of the molar value.
assay.metric: pIC50

Check out these entries, answers already filled in.
>>> observed_value("c1cc(-c2cnc3[nH]cc(-c4ccn[nH]4)c3n2)ccn1")
6.03
>>> observed_value("c1cncc(-c2cnc3[nH]cc(-c4cccnc4)c3n2)c1")
6.39

[A] c1cncc(-c2cnc3[nH]ccc3n2)c1
[B] Cc1n[nH]cc1-c1cnc2[nH]ccc2n1
Q: Select the item whose pIC50 value is smaller, choosing between A and B . Indicate your choice by writing its label.
Result: A

Each recorded value in this set is attributed to ChEMBL document CHEMBL3627630.
